Record form. Attribute: pIC50. Fill in for each entry.
- experimental-system: Tyrosinase (Homo sapiens)
- Sequence (P14679 whole entry): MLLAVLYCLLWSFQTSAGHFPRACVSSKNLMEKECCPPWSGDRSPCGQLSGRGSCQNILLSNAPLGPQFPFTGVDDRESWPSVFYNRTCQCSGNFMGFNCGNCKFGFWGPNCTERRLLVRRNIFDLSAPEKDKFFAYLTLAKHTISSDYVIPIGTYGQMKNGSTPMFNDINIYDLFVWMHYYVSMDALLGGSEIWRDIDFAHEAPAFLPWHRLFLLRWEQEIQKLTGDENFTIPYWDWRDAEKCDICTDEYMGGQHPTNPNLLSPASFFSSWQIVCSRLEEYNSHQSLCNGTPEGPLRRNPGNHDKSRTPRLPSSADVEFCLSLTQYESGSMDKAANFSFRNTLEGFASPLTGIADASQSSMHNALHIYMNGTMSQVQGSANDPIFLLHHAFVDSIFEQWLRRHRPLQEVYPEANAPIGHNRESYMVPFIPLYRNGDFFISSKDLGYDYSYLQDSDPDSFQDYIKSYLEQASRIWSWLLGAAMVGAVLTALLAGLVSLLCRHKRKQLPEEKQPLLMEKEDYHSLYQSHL
- procedure-text: biochemical
- Description: Inhibition of human His-tagged tyrosinase expressed in HEK 293 cells using L-DOPA as substrate by MBTH based assay
One number for each entry, as −log10 of the molar value.

// for each compound below, give its pIC50
1. CC(c1ccccc1)c1ccc(O)cc1O (centres undefined)
2. CC(C)C(=O)Nc1nc(-c2ccc(O)cc2O)cs1
3. CCCCCCc1ccc(O)cc1O

1. 3.88
2. 5.96
3. 4.03

###

- experimental-system: Tyrosinase (Homo sapiens)
- Sequence (P14679 whole entry): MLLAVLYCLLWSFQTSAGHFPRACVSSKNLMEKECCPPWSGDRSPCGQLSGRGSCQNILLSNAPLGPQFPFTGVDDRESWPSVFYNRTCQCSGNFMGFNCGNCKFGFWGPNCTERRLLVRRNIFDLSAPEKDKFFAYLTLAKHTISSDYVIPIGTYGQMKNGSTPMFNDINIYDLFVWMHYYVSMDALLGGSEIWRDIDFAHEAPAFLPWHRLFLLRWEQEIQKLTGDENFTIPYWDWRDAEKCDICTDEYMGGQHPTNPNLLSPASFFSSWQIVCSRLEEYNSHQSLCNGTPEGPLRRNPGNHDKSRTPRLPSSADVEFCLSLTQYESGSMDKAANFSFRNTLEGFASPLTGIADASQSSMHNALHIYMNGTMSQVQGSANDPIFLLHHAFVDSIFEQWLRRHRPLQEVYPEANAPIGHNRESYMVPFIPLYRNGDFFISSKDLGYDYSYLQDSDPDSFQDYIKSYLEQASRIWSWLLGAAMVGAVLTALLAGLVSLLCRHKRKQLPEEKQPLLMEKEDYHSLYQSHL
- procedure-text: Inhibition of tyrosinase in human melanocyte cells using L-DOPA as substrate by absorbance method
- Format: cell-based
readout-type: pIC50
Give bare numbers, as −log10 of the molar value.

Which pIC50 is reported for this compound? `COc1cc(/C=C/C(=O)CC(=O)/C=C/c2ccc(O)c(OC)c2)ccc1O`
5.30

###

- experimental-system: UniProt P14679
- procedure-text: Inhibition of tyrosinase in human neonatal foreskin epidermal melanocyte cells using L-tyrosine and L-DOPA as substrate preincubated for 2 days followed by cell lysis and subsequent substrate addition and measured after 3 hr by spectrophotometric method
- Format: cell-based
I'd be grateful if you could share measured IC50 for these entries.
One number for each entry, in nM.

CCCCCCCCCCCCC/C=C1\C(=O)O[C@@](C)(OC)[C@@H]1O [SUBAMOLIDE A] :: 1000

--- query ---
Identify the measured IC50 of `C=C1OC(=O)/C(=C\CCCCCCCCCCCCC)[C@H]1O` for UniProt P14679.
1000
